All values here come from patent US20140056918A1.

Target: T1, Human OSCAR-ECD (recombinant extracellular domain of human OSCAR) (human, UniProt Q8IYS5 19-218)
T1 construct: also called OSACAR-ECD
T1 chain: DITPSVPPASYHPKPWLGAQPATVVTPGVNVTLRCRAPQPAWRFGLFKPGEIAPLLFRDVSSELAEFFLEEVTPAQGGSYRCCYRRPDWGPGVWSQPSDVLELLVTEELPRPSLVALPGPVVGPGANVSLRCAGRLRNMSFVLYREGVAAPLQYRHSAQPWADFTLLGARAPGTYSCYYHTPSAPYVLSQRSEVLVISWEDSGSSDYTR
Test: SPR competition, 50 nM OSCAR-ECD premixed with mAb, over immobilised collagen II
Design: unit not given here
Protocol: The experiment was performed using a Biacore T 100 instrument (GE Healthcare). Human collagen 1 (Sigma, # C5483) and human collagen 2 (Millipore #CC052) were diluted with 10 mM NaOAc, pH 4.5 and immobilized on a Biacore CM3 sensor chip (GE Healthcare) using amine coupling chemistry (GE Healthcare). […] Binding curves were measured for 360 s followed by 240 s of dissociation. […]
Field: binding of OSCAR-ECD to collagen II with 10 µg/mL mAb. Provide a value for each of the binders that follow.
Give bare numbers.

Reference set, count: 4
| binder | endpoint_value |
| --- | --- |
| 4F3B (antibody, V domains shown, Mouse anti-human OSCAR mAb (its isotype control is mIgG1); The heavy chain entry covers only VH-CH1 and the start of the hinge; It was fluorescein-labelled in the peptide array and Alexa Fluor 647-labelled in the flow binning; also called mAb 4F3B) VH: QVQLQQSGAELAKPGASVKMSCKASGFTFTSYWMHWVKQRPGQGLEWIGYINPSTDYTEYNQKFKDKATLTADKSSSTAYMQLSSLTSEDSAVYYCARRSPFAMDYWGQGTSVTVSS VL: DIVMTQSPSSLTVTAGEKVTMSCKSSQSLLNSGNQKNYLTWYQQKPGQPPKVLIYWASTRESGVPDRFTGSGSGTDFTLTISSVQAEDLAVYYCQNDYSYPLTFGTGTKLELKR | 6.7 |
| 6F3A (antibody, V domains shown, Mouse anti-OSCAR mAb) VH: EVQLQQSGAELVKPGASVKLSCTASGFNIKDTYVHWVKQRPDQGLEWIGRIDPAIGNTKYDPKFRGKATITADSSSNTAYLQLSSLTSEDTAVYYCARLSYGNYGLDYSMDYWGQGTSVTVSS VL: DIVLTQSPATLSVTPGDSVSLSCRASQSITNNLHWYQQKSHESPRLLIKYASQSISGIPSRFRGSGSGTDFTLSINSVETEDFGVYFCQQSNTWPRTFGGGTKLEIKR | 13.8 |
| 6F6B (antibody, V domains shown, Mouse anti-OSCAR mAb) VH: EVQLQQSGAELVKPGASVKLSCTASGFNIKDTYVHWVKQRPDQGLEWIGRIDPAIGNTKYDPKFRGKATITADSSSNTAYLQLSSLTSEDTAVYYCARLSYGNYGLDYSMDYWGQGTSVTVSS VL: DIVLTQSPATLSVTPGDSVSLSCRASQSITNNLHWYQQKSHESPRLLIKYASQSISGIPSRFRGSGSGTDFTLSINSVETEDFGVYFCQQSNTWPRTFGGGTKLEIKR | 1 |
| 7F10A1 (antibody, V domains shown, Mouse anti-human OSCAR mAb; The heavy chain entry covers only VH-CH1 and the start of the hinge) VH: QVQLQQSGAELARPGASVKLSCKASGYTFTDNYINWVKQRTGQGLEWIGEIYPGSGNTYYNEKFKGKATLTADKSSSTAYMQLSSLTSEDSAVYFCARSANRYDRGDFDYWGQGTPLTVSS VL: QILLTQSPAIMSASPGEKVTMTCSASSSVSYMHWYQQKPGSSPKPWIYDTSNLASGFPARFSGSGSGTSYSLIISSMEAEDAATYYCHQRSSYPYTFGGGTKLEIKR | 102 |

In the following, a different binder is considered.
[in] Returns the measured binding of OSCAR-ECD to collagen II with 10 µg/mL mAb for the input binder. Input: 3F7A9 (antibody, V domains shown, Mouse anti-human OSCAR mAb (its isotype control is mIgG1); The heavy chain entry covers only VH-CH1 and the start of the hinge; also called 3F7A9-1) VH: EIQLQQSGPELVKPGASVKVSCKASGYVFTSYNMYWVKQSHGKSLEWIGYIDPYNGGTRYNQKFKGKATLTVDKSSSTAYMHLNSLTSEDSAVYYCARLDYYGNFYWGQGTTLTVSS VL: DIKMTQSPSSMYASLGERVTITCKASQDINSFLSWLQQKPGKSPKTLIYRANRLVDGVPSRFSGSGSGQDYSLTISSLEYEDMGIYYCLQYDDFPYTFGGGTKLEIKR
[out] 246
